Source listed as patent US20160199438A1.

Target: T1, human glucose-dependent insulinotropic polypeptide receptor (human, UniProt P48546 22-466)
T1 construct: whole, on cells; also called hGIP-R; Human GIP-R
T1 sequence (looked up): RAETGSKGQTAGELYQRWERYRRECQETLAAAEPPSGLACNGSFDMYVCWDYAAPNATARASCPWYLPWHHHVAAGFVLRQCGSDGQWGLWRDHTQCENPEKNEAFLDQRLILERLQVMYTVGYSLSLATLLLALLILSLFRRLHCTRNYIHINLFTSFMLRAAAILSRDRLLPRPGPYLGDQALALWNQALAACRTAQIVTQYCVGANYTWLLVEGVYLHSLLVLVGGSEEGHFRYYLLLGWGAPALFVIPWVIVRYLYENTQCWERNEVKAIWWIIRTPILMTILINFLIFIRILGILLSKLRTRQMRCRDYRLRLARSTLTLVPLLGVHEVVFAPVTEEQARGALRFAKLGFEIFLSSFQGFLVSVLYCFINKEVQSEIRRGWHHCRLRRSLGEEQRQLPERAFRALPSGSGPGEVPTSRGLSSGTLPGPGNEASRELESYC
Experiment: competition of [125I]GIP, SPA, hGIP-R CHO-S membranes; Ki by Cheng-Prusoff
Measured Ki, listed per entry.
MEASUREMENT_NAME: Ki (nM)

INSERT INTO measurements (binder, experimental_result) VALUES
  ('YXEGTFTSDYSIXLDKIAQKAXVQWLIAGGPSSGAPPPS (Aib at positions 2 and 13; K at position 20 conjugated at the epsilon-amino group with ([2-(2-Amino-ethoxy)-ethoxy]-acetyl)2-(γGlu)2-CO-(CH2)18-CO2H; 1-Nal at position 22; C-terminal primary amide, Synthetic acylated peptide, trifluoroacetate salt) [Example 2]', 63.9),
  ('YXEGTFTSDYSIXLDKIAQKAFVQWLIAGGPSSGAPPPS (Aib at positions 2 and 13; K at position 20 conjugated at the epsilon-amino group with ([2-(2-Amino-ethoxy)-ethoxy]-acetyl)2-(γGlu)1-CO-(CH2)16-CO2H; C-terminal primary amide, Synthetic acylated peptide, trifluoroacetate salt) [Example 3]', 26.7),
  ('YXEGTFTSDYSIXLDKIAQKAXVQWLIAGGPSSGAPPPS (Aib at positions 2 and 13; K at position 20 conjugated at the epsilon-amino group with ([2-(2-Amino-ethoxy)-ethoxy]-acetyl)2-(γGlu)2-CO-(CH2)16-CO2H; 1-Nal at position 22; C-terminal primary amide, Synthetic acylated peptide, trifluoroacetate salt) [Example 7]', 46.1),
  ('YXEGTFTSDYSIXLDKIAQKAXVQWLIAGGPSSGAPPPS (Aib at positions 2 and 13; K at position 20 conjugated at the epsilon-amino group with ([2-(2-Amino-ethoxy)-ethoxy]-acetyl)2-(γGlu)1-CO-(CH2)16-CO2H; 1-Nal at position 22; C-terminal primary amide, Synthetic acylated peptide, trifluoroacetate salt) [Example 6]', 44.2),
  ('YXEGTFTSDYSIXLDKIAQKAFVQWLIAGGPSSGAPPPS (Aib at positions 2 and 13; K at position 20 conjugated at the epsilon-amino group with ([2-(2-Amino-ethoxy)-ethoxy]-acetyl)2-(γGlu)2-CO-(CH2)16-CO2H; C-terminal primary amide, Synthetic acylated peptide, trifluoroacetate salt) [Example 4]', 40.7),
  ('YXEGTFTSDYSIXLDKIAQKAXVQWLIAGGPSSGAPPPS (Aib at positions 2 and 13; K at position 20 conjugated at the epsilon-amino group with ([2-(2-Amino-ethoxy)-ethoxy]-acetyl)2-(γGlu)1-CO-(CH2)18-CO2H; 1-Nal at position 22; C-terminal primary amide, Synthetic acylated peptide, trifluoroacetate salt) [Example 8]', 67.5),
  ('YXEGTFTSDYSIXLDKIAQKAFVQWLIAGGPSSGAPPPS (Aib at positions 2 and 13; K at position 20 conjugated at the epsilon-amino group with ([2-(2-Amino-ethoxy)-ethoxy]-acetyl)2-(γGlu)2-CO-(CH2)18-CO2H; C-terminal primary amide, Synthetic acylated peptide, trifluoroacetate salt) [Example 5]', 17.8);
